Collected pIC50 values appear next to each entry.
Molecular target: EIF2AK3 (PERK) catalytic domain (amino acids 536-1116) (Homo sapiens (Human), UniProt Q9NZJ5)
Sequence (Q9NZJ5 536-1116): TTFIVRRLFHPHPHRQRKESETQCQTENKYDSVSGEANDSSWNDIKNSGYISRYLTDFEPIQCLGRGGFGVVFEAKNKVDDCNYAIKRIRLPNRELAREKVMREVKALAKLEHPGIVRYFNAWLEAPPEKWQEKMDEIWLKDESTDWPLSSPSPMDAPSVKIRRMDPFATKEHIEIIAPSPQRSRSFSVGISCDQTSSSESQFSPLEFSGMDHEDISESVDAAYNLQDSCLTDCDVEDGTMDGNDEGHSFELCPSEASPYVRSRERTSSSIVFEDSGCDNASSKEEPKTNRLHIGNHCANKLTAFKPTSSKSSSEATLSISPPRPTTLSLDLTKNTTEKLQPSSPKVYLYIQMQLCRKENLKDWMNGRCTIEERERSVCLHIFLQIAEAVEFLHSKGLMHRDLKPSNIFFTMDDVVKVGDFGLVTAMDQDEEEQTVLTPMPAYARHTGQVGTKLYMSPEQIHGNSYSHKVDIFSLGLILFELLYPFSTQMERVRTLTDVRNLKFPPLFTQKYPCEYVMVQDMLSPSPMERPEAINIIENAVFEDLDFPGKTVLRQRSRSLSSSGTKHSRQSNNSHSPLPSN
Experiment: PERK in vitro activity assay (isolated), TR-FRET kinase assay
Conditions: isolated PERK enzyme, 1.5 μM ATP, GFP-eIF2a substrate; read-out: Biochemical IC50
pIC50: −log10 of the molar value.
assay_endpoint: pIC50

compound | result
CCc1cc(NC(=O)C(O)c2cc(F)cc(F)c2)ccc1-c1cnc(N)c(C(=O)NC2COC2)n1 (stereo not shown) [Example 158] | 7.60 to 9.00
CCc1cc(NC(=O)C(O)c2cc(F)cc(F)c2)ccc1-c1cnc(N)c(C(=O)NCC(F)(F)F)c1 (stereo not shown) [Example 101] | 7.60 to 9.00
CCc1cccc(CC(=O)Nc2ccc(-c3cnc(N)c(C(=O)NC(C)C)c3)c(C)c2)c1 [Example 205] | 7.60 to 9.00
Cc1ccc(CC(=O)Nc2ccc(-c3cnc(N)c(C(=O)NC(C)C)c3)c(C)c2)cc1 [Example 197] | 6.60 to 7.00
Cc1cc(NC(=O)C(O)c2cc(F)cc(F)c2)ccc1-c1cnc(N)c(C(=O)NC(C)C)c1 (stereo not shown) [Example 8] | 7.60 to 9.00
Cc1cc(NC(=O)C(O)c2cc(F)cc(F)c2)ccc1-c1cnc(N)c(C(=O)NCC(F)(F)F)c1 (single isomer, unassigned) [Example 19] | 6.60 to 7.00
Cc1cc(NC(=O)C(O)c2cc(F)cc(F)c2)ccc1-c1cnc(N)c(C(=O)OC(C)C)c1 (single isomer, unassigned) [Example 43] | 7.00 to 7.29
